System: MGC 803 (human gastric cancer cell)
PROCEDURE SUMMARY: Solid tumor cell growth inhibition, MTT, 72 h (Example 7)
Format: cell-based
TEST CONDITIONS: Homo sapiens
PROPERTY MEASURED: IC50 (µg/mL)

COMPOUND: COc1ccc2cc1Oc1ccc(cc1)C[C@H]1c3cc(c(OC)cc3CCN1C)Oc1c(OC)c(OC)c(CN(C)C)c3c1[C@H](C2)N(C)CC3
MEASURED ON: MGC 803 (human gastric cancer cell)
IC50 [µg/mL]: 9.67
//
COMPOUND: COc1ccc2cc1Oc1ccc(cc1)C[C@H]1c3cc(c(OC)cc3CCN1C)Oc1c(OC)c(OC)c(CNCc3cccnc3)c3c1[C@H](C2)N(C)CC3
MEASURED ON: MGC 803 (human gastric cancer cell)
IC50 [µg/mL]: 1.93
//
COMPOUND: CNCc1c2c3c(c(OC)c1OC)Oc1cc4c(cc1OC)CCN(C)[C@H]4Cc1ccc(cc1)Oc1cc(ccc1OC)C[C@@H]3N(C)CC2
MEASURED ON: MGC 803 (human gastric cancer cell)
IC50 [µg/mL]: 1.46
//
COMPOUND: COc1ccc2cc1Oc1ccc(cc1)C[C@H]1c3cc(c(OC)cc3CCN1C)Oc1c(OC)c(OC)c(CN3CCN(C(C)C)CC3)c3c1[C@H](C2)N(C)CC3
MEASURED ON: MGC 803 (human gastric cancer cell)
IC50 [µg/mL]: 0.84
//
COMPOUND: COc1ccc2cc1Oc1ccc(cc1)C[C@H]1c3cc(c(OC)cc3CCN1C)Oc1c(OC)c(OC)c(COC(=O)c3ccc(N(C)C)cc3)c3c1[C@H](C2)N(C)CC3
MEASURED ON: MGC 803 (human gastric cancer cell)
IC50 [µg/mL]: 2.57

[P] COCCCNCc1c2c3c(c(OC)c1OC)Oc1cc4c(cc1OC)CCN(C)[C@H]4Cc1ccc(cc1)Oc1cc(ccc1OC)C[C@@H]3N(C)CC2
[Q] COc1ccc2cc1Oc1ccc(cc1)C[C@H]1c3cc(c(OC)cc3CCN1C)Oc1c(OC)c(OC)c(CN3CCCCC3)c3c1[C@H](C2)N(C)CC3
[R] COc1ccc2cc1Oc1ccc(cc1)C[C@H]1c3cc(c(OC)cc3CCN1C)Oc1c(OC)c(OC)c(CN3CCC(O)CC3)c3c1[C@H](C2)N(C)CC3
[S] CCN1CCN(Cc2c3c4c(c(OC)c2OC)Oc2cc5c(cc2OC)CCN(C)[C@H]5Cc2ccc(cc2)Oc2cc(ccc2OC)C[C@@H]4N(C)CC3)CC1
Data request: Parameters: sort_field (IC50), sort_dir (desc). Arrange the labels as the request states and list them.
Data returned: R, P, S, Q
